The values you see were collected from patent US20190071490A1.

Target: T1, human α-CGRP 1-37 (WT) (human, C-terminal amide; N-terminal biotin when captured on the SA chip; 125I-labelled in the radioligand assay)
T1 construct: also called α-human
T1 peptide: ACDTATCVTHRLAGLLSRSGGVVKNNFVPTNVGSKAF
Experiment: Biacore, 37°C, Fab over CGRP on SA chip
Protocol: Biacore assay for affinity determination. […] All Biacore assays were conducted in HBS-EP running buffer (10 mM HEPES pH 7.4, 150 mM NaCl, 3 mM EDTA, 0.005% v/v polysorbate P20). CGRP surfaces were prepared by diluting the N-biotinylated CGRP to a concentration of less than 0.001 mg/mL into HBS-EP buffer and injecting it across the SA sensor chip using variable contact times. […] Samples were typically injected for 1 minute at 100 μL/min and dissociation times of at least 10 minutes were allowed. […]
REPORTED PROPERTY: koff (s⁻¹)
Record the value in s⁻¹, omitting the unit from your answer.

Worked cases, koff given:
[[record]]
binder = "G1 variant M55 Fab (Fab, V domains shown, Fab; constant domains as m1) VH: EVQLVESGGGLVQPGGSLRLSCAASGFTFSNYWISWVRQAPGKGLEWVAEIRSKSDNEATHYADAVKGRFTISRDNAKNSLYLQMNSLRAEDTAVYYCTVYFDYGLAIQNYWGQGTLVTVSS VL: EIVLTQSPATLSLSPGERATLSCKASKNVATYVSWYQQKPGQAPRLLIYGASNRYSGIPARFSGSGSGTDFTLTISSLEPEDFAVYYCSQSYNYPYTFGQGTKLEIK"
unit_spec = "s⁻¹"
measured_value = 0.000478

[[record]]
binder = "G1 variant M68 Fab (Fab, V domains shown, Fab; constant domains as m1; printed L561 read as L56I) VH: EVQLVESGGGLVQPGGSLRLSCAASGFTFSNYWISWVRQAPGKGLEWVAEIRSKSDNDATHYADAVKGRFTISRDNAKNSLYLQMNSLRAEDTAVYYCTVYFDYGLAIQNYWGQGTLVTVSS VL: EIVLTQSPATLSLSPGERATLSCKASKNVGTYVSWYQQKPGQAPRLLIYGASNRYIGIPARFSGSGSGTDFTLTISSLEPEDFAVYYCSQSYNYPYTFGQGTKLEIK"
unit_spec = "s⁻¹"
measured_value = 0.000428


Now look at this entry.
Field request: koff | item: G1 variant M71 Fab (Fab, V domains shown, Fab; constant domains as m1; printed L561 read as L56I) VH: EVQLVESGGGLVQPGGSLRLSCAASGFTFSNYWISWVRQAPGKGLEWVAEIRSKSDYSATHYAEAVKGRFTISRDNAKNSLYLQMNSLRAEDTAVYYCTVYFDYGLAIQNYWGQGTLVTVSS VL: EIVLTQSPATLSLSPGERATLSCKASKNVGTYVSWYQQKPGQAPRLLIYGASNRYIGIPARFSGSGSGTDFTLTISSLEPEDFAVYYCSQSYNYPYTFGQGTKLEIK
0.00128
